This collection of values is drawn from patent US20240317858A1.

Here the recorded pKd is given for each entry.
target: T1, Cynomolgus CD3εδ Fc heterodimer (Cy CD3ε Fc + CD3δ Fc-HIS) (cynomolgus, UniProt Q95LI5 22-117; Q95LI8 22-100); assay: BLI (Octet), Fab monovalent, pH 6.0
T1 construct: range 22-117;range 22-100; Made in HEK 293 cells with a heterologous signal peptide; also called Cy CD3εδ-Fc; cyno CD3εδ Fc; not shown: Fc; Fc followed by HIS tag
T1 sequence (Q95LI5 22-117, stated change not applied, form in doubt, chain 1 of 2): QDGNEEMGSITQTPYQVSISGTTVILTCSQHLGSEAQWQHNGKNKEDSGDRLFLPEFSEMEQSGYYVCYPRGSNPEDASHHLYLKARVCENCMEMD
T1 sequence (Q95LI8 22-100, stated change not applied, form in doubt, chain 2 of 2): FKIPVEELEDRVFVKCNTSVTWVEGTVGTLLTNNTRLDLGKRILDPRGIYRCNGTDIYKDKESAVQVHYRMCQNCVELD
# reply with the number alone; pKd is -log10 of concentration in mol/L

As a guide, the following entries are already answered.
>  <Binder>
Antibody No. V010 (ADI-70327) Fab (Fab, V domains shown, Fab by papain digestion of the IgG1) VH: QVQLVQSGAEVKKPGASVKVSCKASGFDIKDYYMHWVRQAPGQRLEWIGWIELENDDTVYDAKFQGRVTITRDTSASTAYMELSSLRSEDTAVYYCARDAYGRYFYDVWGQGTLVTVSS VL: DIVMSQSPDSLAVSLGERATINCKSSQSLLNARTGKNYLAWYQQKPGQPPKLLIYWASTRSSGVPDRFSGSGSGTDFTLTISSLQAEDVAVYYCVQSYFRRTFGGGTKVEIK

>  <pKd>
8.72

$$$$
>  <Binder>
Antibody No. V014 (ADI-76357) Fab (Fab, V domains shown, Fab by papain digestion of the IgG1) VH: QVQLVQSGAEVKKPGASVKVSCKASGFDIKDYYMHWVRQAPGQRLEWMGWIDLENANTIYDAKFQGRVTITRDTSASTAYMELSSLRSEDTAVYYCARDQYGRYFYDVWGQGTLVTVSS VL: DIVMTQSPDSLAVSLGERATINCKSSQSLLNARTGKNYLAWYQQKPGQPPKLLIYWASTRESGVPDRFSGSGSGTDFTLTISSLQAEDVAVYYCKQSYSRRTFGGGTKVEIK

>  <pKd>
7.68

$$$$

Query string: Look up pKd: Antibody No. V018 (ADI-76361) Fab (Fab, V domains shown, Fab by papain digestion of the IgG1) VH: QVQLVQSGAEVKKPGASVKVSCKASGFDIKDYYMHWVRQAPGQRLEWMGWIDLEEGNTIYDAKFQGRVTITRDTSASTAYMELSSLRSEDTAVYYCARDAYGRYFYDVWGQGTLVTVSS VL: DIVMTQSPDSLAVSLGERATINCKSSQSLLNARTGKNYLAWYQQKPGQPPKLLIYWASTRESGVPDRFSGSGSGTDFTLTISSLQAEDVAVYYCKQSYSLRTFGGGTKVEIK
Result string: 7.77
